FYI, the data here is from the supplement of paper PMC9233669.

self-aminoacylation values by entry
# Test system: biotinyl-Met-oxazolone
# Test method notes: self-aminoacylation, catalytic enhancement (BMO) (fold over background); higher = more active; k-Seq, kA / k0A0; sequences stand for … in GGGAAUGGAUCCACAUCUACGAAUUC…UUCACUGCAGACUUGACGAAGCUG
Fewer inactive variants are shown than the library holds.
I'd appreciate a reply containing only the number, no unit.

Below: 5 sequences and their reported self-aminoacylation.
- Residue codes: "AUUCACCUAGGUCAUUGGGUC [Fam2.2 aminoacylation ribozyme variant]"
  Measured target: "biotinyl-Met-oxazolone"
  self-aminoacylation: 0.808
- Residue codes: "CUACUUCAAACAAUCGGUGUC [Fam1A.1 aminoacylation ribozyme variant]"
  Measured target: "biotinyl-Met-oxazolone"
  self-aminoacylation: 0.654
- Residue codes: "AUUGCCCUUGUCAUCGAGUGA [Fam2.1 aminoacylation ribozyme variant]"
  Measured target: "biotinyl-Met-oxazolone"
  self-aminoacylation: 7.03
- Residue codes: "AUUAACUUGGUCAUCGAGUGA [Fam2.1 aminoacylation ribozyme variant]"
  Measured target: "biotinyl-Met-oxazolone"
  self-aminoacylation: 3.67
- Residue codes: "CUGACCCUGGUCAUCGAGUGA [Fam2.1 aminoacylation ribozyme variant]"
  Measured target: "biotinyl-Met-oxazolone"
  self-aminoacylation: 7.22

Lab note: CUUACCCGGGUCAUCGAGUGA [Fam2.1 aminoacylation ribozyme variant] gave self-aminoacylation of 5.92

Lab note: GUACUUCAAACAAUCUGUCUG [Fam1A.1 aminoacylation ribozyme variant] gave self-aminoacylation of 1.41

Lab note: CCCCACUUCAAGCACUCGGUC [Fam1B.1 aminoacylation ribozyme variant] gave self-aminoacylation of 2.79

Lab note: AUUACCCAGGUCACCGAGUGA [Fam2.1 aminoacylation ribozyme variant] gave self-aminoacylation of 8.63

Lab note: AUGACCCUGGGCAUCGAGUGA [Fam2.1 aminoacylation ribozyme variant] gave self-aminoacylation of 7.08

Lab note: ACGUUUGCUAAUAGUCGAAAG [Fam3.1 aminoacylation ribozyme variant] gave self-aminoacylation of 1.58

Lab note: CCACACUUCAAGGAAUCUGUC [Fam1B.1 aminoacylation ribozyme variant] gave self-aminoacylation of 0.442

Lab note: CCUCACUUGAAGCAAUCGGUC [Fam1B.1 aminoacylation ribozyme variant] gave self-aminoacylation of 0.679

Lab note: GUACUUCAGACAAUCGGUCUG [Fam1A.1 aminoacylation ribozyme variant] gave self-aminoacylation of 1.2

Lab note: CUACUUGAAAGAAUCGGUCUG [Fam1A.1 aminoacylation ribozyme variant] gave self-aminoacylation of 0.974

Lab note: AUUCACCUAACUCAUCGGGUG [Fam2.2 aminoacylation ribozyme variant] gave self-aminoacylation of 4.05

Lab note: AUUCACCUUGUUCAUCGGGUG [Fam2.2 aminoacylation ribozyme variant] gave self-aminoacylation of 2.72

Lab note: CUGCUGCAAACAAUCGGUCUG [Fam1A.1 aminoacylation ribozyme variant] gave self-aminoacylation of 0.995

Lab note: AUUACCCUGGUCAAAGAGUGA [Fam2.1 aminoacylation ribozyme variant] gave self-aminoacylation of 8.35

Lab note: AUUACAUUGGUCAUCGAGUGA [Fam2.1 aminoacylation ribozyme variant] gave self-aminoacylation of 5.35

---

# Tested on: biotinyl-Trp-oxazolone
# Test method notes: self-aminoacylation, catalytic enhancement (BWO) (fold over background); higher = more active; k-Seq, kA / k0A0; sequences stand for … in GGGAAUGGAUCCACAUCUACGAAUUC…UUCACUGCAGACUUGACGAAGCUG
Variants at the floor of the assay were thinned out.
Parameter: self-aminoacylation
I'd appreciate a reply containing only the number, no unit.

Below: 5 sequences and their reported self-aminoacylation.
- Residue codes: "AUUCACCUGGGUCAUGGGGUG [Fam2.2 aminoacylation ribozyme variant]"
  Experimental value: 6.16
- Residue codes: "AUUCACCUAGCUCUUCGGGUG [Fam2.2 aminoacylation ribozyme variant]"
  Experimental value: 2.74
- Residue codes: "CCACACUUCAAAUAAUCGGUC [Fam1B.1 aminoacylation ribozyme variant]"
  Experimental value: 13.7
- Residue codes: "UUACUUCAGACAAUCGGUCUG [Fam1A.1 aminoacylation ribozyme variant]"
  Experimental value: 1.12
- Residue codes: "AGUACCCUAGUCAUCGAGUGA [Fam2.1 aminoacylation ribozyme variant]"
  Experimental value: 6.29

Lab note: CCACAUUUCCAGCAAUCGGUC [Fam1B.1 aminoacylation ribozyme variant] gave self-aminoacylation of 1.23

Lab note: AUUCACCUCCGUCAUCGGGUG [Fam2.2 aminoacylation ribozyme variant] gave self-aminoacylation of 8.32

Lab note: CCACACUGCAAGCAAUCGGUU [Fam1B.1 aminoacylation ribozyme variant] gave self-aminoacylation of 1.76

Lab note: CCACUUCAAACAAUCGGUCCG [Fam1A.1 aminoacylation ribozyme variant] gave self-aminoacylation of 16.8

Lab note: AAGUUUACUUAUAGUCGCAAG [Fam3.1 aminoacylation ribozyme variant] gave self-aminoacylation of 1.74

Lab note: CCACUCUUAAAGCAAUCGGUC [Fam1B.1 aminoacylation ribozyme variant] gave self-aminoacylation of 0.693
